- experimentalProtocol: α-helix ratio of polypeptides by circular dichroism
- Format: physicochemical
- conditionSummary: PBS solution, 1 mg/mL
Bridge positions count the residues as written; N and C are the ends. Square brackets hold non-standard residues; d marks the D form. Peptide text beside a SMILES is read from it. S5 = C=CCCC[C@](C)(N)C(=O)O
property: α-helicity (%)
Answer in %, number only, no unit symbol.

CSCC[C@H](NC(=O)[C@H](CC(C)C)NC(=O)[C@@H](N)Cc1c[nH]cn1)C(=O)N[C@@H](C)C(=O)N[C@@]1(C)CCCC=CCCC[C@@](C)(C(=O)N[C@@H](CCCCN)C(=O)N[C@@H](CCCCN)C(=O)N[C@@H](CC(C)C)C(=O)N[C@@H](CCCCN)C(=O)N[C@@H](CCCCN)C(=O)N[C@@H](CCCNC(=N)N)C(=O)O)NC(=O)[C@H](CS)NC(=O)[C@H]([C@@H](C)O)NC(=O)[C@H](Cc2ccccc2)NC1=O [S5] (H-HLMA[S5]FTC[S5]KKLKKR-OH; staple 5-9; N-terminus and C-terminus assumed)
69.1
CC(C)C[C@H](NC(=O)[C@H](CCCCN)NC(=O)[C@H](CCCCN)NC(=O)[C@H](C)NC(=O)[C@H](CS)NC(=O)[C@]1(C)CCCC=CCCC[C@](C)(NC(=O)[C@H](CC(C)C)NC(=O)[C@@H](N)Cc2c[nH]cn2)C(=O)N[C@@H](C)C(=O)N[C@@H](CS)C(=O)N[C@@H](Cc2ccccc2)C(=O)N1)C(=O)N[C@@H](CCCCN)C(=O)N[C@@H](CCCCN)C(=O)N[C@@H](CCCNC(=N)N)C(=O)O [S3] (H-HL[S5]ACF[S5]CAKKLKKR-OH; staple 3-7; N-terminus and C-terminus assumed)
42.1
CSCC[C@@H]1NC(=O)[C@@](C)(NC(=O)[C@@H](N)Cc2c[nH]cn2)CCCC=CCCC[C@@](C)(C(=O)N[C@H](C(=O)N[C@@H](CS)C(=O)N[C@@H](C)C(=O)N[C@@H](CCCCN)C(=O)N[C@@H](CCCCN)C(=O)N[C@@H](CC(C)C)C(=O)N[C@@H](CCCCN)C(=O)N[C@@H](CCCCN)C(=O)N[C@@H](CCCNC(=N)N)C(=O)O)[C@@H](C)O)NC(=O)[C@H](CS)NC(=O)[C@H](C)NC1=O [S2] (H-H[S5]MAC[S5]TCAKKLKKR-OH; staple 2-6; N-terminus and C-terminus assumed)
25.7

Q) Quickly give me recorded α-helicity (%) for CSCC[C@H](NC(=O)[C@H](CC(C)C)NC(=O)[C@@H](N)Cc1c[nH]cn1)C(=O)N[C@@H](C)C(=O)N[C@@H](CS)C(=O)N[C@@H](Cc1ccccc1)C(=O)N[C@H](C(=O)N[C@@]1(C)CCCC=CCCC[C@@](C)(C(=O)N[C@@H](CCCCN)C(=O)N[C@@H](CCCCN)C(=O)N[C@@H](CCCNC(=N)N)C(=O)O)NC(=O)[C@H](CCCCN)NC(=O)[C@H](CCCCN)NC(=O)[C@H](C)NC1=O)[C@@H](C)O [S8] (H-HLMACFT[S5]AKK[S5]KKR-OH; staple 8-12; N-terminus and C-terminus assumed)
A) 29.1

Q) Quickly give me recorded α-helicity (%) for CSCC[C@H](NC(=O)[C@H](CC(C)C)NC(=O)[C@@H](N)Cc1c[nH]cn1)C(=O)N[C@@H](C)C(=O)N[C@@H](CS)C(=O)N[C@@H](Cc1ccccc1)C(=O)N[C@H](C(=O)N[C@@H](CS)C(=O)N[C@@H](C)C(=O)N[C@@H](CCCCN)C(=O)N[C@@]1(C)CCCC=CCCC[C@@](C)(C(=O)O)NC(=O)[C@H](CCCCN)NC(=O)[C@H](CCCCN)NC(=O)[C@H](CC(C)C)NC1=O)[C@@H](C)O [S11] (H-HLMACFTCAK[S5]LKK[S5]-OH; staple 11-15; N-terminus and C-terminus assumed)
A) 37.8
